Parameter: abundance fitness. Scope: all listed entries.
B1: Ankyrin-3, residues 4094 to 4171; numbered along this chain, Q12955 (parent)
chain: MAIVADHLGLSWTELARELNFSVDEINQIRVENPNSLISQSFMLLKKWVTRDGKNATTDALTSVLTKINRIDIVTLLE

variants of: B1; test: abundance fitness (aPCA) (normalised: wild type 0, dead -1); higher = more abundant; growth selection in yeast, the domain comes from the species named; conditions: Homo sapiens
READOUT_TYPE: abundance fitness

{"CHANGE": "T66Q", "READOUT_TYPE": "abundance fitness", "MEASURED": 0.118}
{"CHANGE": "T50R", "READOUT_TYPE": "abundance fitness", "MEASURED": -0.094}
{"CHANGE": "V49Y", "READOUT_TYPE": "abundance fitness", "MEASURED": 0.021}
{"CHANGE": "N27Q", "READOUT_TYPE": "abundance fitness", "MEASURED": 0.012}
{"CHANGE": "G9D", "READOUT_TYPE": "abundance fitness", "MEASURED": -0.503}
{"CHANGE": "K67P", "READOUT_TYPE": "abundance fitness", "MEASURED": -0.646}
{"CHANGE": "V23P", "READOUT_TYPE": "abundance fitness", "MEASURED": -0.034}
